methodSummary: Alisertib plasma PK in patients
Format: in vivo, human
runParameters: human, plasma, oral, 30 mg, Geometric mean Cmax (CV), MRV, alisertib 30 mg b.i.d., C1D1, n=4
endpointName: Cmax (nM)
Answers are plain numbers, in nM.

Ask: I'd like to know its Cmax. The compound in question is COc1cc(Nc2ncc3c(n2)-c2ccc(Cl)cc2C(c2c(F)cccc2OC)=NC3)ccc1C(=O)O
Reply: 841

----------
methodSummary: Alisertib plasma PK in patients
Format: in vivo, human
runParameters: human, plasma, oral, 40 mg, Geometric mean AUCτ (CV), MRV, alisertib 40 mg b.i.d., C1D7, n=20
endpointName: AUC (µM·h)
Numbers only, in µM·h.

Ask: Entry COc1cc(Nc2ncc3c(n2)-c2ccc(Cl)cc2C(c2c(F)cccc2OC)=NC3)ccc1C(=O)O [alisertib] : reported AUC = ?
Reply: 14.9

----------
methodSummary: Alisertib plasma PK in patients
Format: in vivo, human
runParameters: human, plasma, oral, 50 mg, Median Tmax (range), MR, alisertib 50 mg b.i.d., C1D1, n=13
endpointName: Tmax (h)
One number for each entry, in h.

Ask: Quick check: Tmax of COc1cc(Nc2ncc3c(n2)-c2ccc(Cl)cc2C(c2c(F)cccc2OC)=NC3)ccc1C(=O)O ?
Reply: 3

----------
methodSummary: Alisertib plasma PK in patients
Format: in vivo, human
runParameters: human, plasma, oral, 40 mg, Geometric mean Cmax (CV), MRV, alisertib 40 mg b.i.d., C1D1, n=25
endpointName: Cmax (nM)
Answers are plain numbers, in nM.

Ask: Request the reported Cmax associated with COc1cc(Nc2ncc3c(n2)-c2ccc(Cl)cc2C(c2c(F)cccc2OC)=NC3)ccc1C(=O)O
Reply: 1090

----------
methodSummary: Vincristine plasma PK in presence
Assay type: in vivo, human
runParameters: human, plasma, intravenous, 40 mg, Geometric mean AUC∞ (CV), alisertib 40 mg b.i.d. cohort, C1D1 (alisertib present), n=22
endpointName: AUC(0-inf)

Ask: For the compound shown here, CC[C@]1(O)C[C@H]2CN(CCc3c([nH]c4ccccc34)[C@@](C(=O)OC)(c3cc4c(cc3OC)N(C=O)[C@H]3[C@@](O)(C(=O)OC)[C@H](OC(C)=O)[C@]5(CC)C=CCN6CC[C@]43[C@@H]65)C2)C1 , give the reported AUC(0-inf).
Reply: 78 ng·h/mL

----------
methodSummary: Vincristine plasma PK in presence
Assay type: in vivo, human
runParameters: human, plasma, intravenous, 50 mg, Geometric mean AUC∞ (CV), alisertib 50 mg b.i.d. cohort, C1D1 (alisertib present), n=3
endpointName: AUC(0-inf) (ng·h/mL)
Give bare numbers, in ng·h/mL.

Ask: Look up AUC(0-inf): CC[C@]1(O)C[C@H]2CN(CCc3c([nH]c4ccccc34)[C@@](C(=O)OC)(c3cc4c(cc3OC)N(C=O)[C@H]3[C@@](O)(C(=O)OC)[C@H](OC(C)=O)[C@]5(CC)C=CCN6CC[C@]43[C@@H]65)C2)C1 [vincristine]
Reply: 111

----------
methodSummary: Alisertib plasma PK in patients
Format: in vivo, human
runParameters: human, plasma, oral, 50 mg, Geometric mean AUCτ (CV), MRV, alisertib 50 mg b.i.d., C1D7, n=2
endpointName: AUC (µM·h)
Answers are plain numbers, in µM·h.

Ask: Quick one: AUC for COc1cc(Nc2ncc3c(n2)-c2ccc(Cl)cc2C(c2c(F)cccc2OC)=NC3)ccc1C(=O)O [alisertib] ?
Reply: 31.8

----------
methodSummary: Vincristine plasma PK in presence
Assay type: in vivo, human
runParameters: human, plasma, intravenous, 50 mg, Mean t1/2z (st. dev), alisertib 50 mg b.i.d. cohort, C1D1 (alisertib present), n=3
endpointName: half-life (h)
Numbers only, in h.

Ask: I'd like to know its half-life. The compound in question is CC[C@]1(O)C[C@H]2CN(CCc3c([nH]c4ccccc34)[C@@](C(=O)OC)(c3cc4c(cc3OC)N(C=O)[C@H]3[C@@](O)(C(=O)OC)[C@H](OC(C)=O)[C@]5(CC)C=CCN6CC[C@]43[C@@H]65)C2)C1
Reply: 25.6

----------
methodSummary: Vincristine plasma PK in presence
Format: in vivo, human
runParameters: human, plasma, intravenous, 30 mg, Geometric mean CL (CV), alisertib 30 mg b.i.d. cohort, C2D1 (alisertib absent), n=4
endpointName: clearance (mL/min)
Give bare numbers, in mL/min.

Ask: Returns the measured clearance for the input molecule. Input: CC[C@]1(O)C[C@H]2CN(CCc3c([nH]c4ccccc34)[C@@](C(=O)OC)(c3cc4c(cc3OC)N(C=O)[C@H]3[C@@](O)(C(=O)OC)[C@H](OC(C)=O)[C@]5(CC)C=CCN6CC[C@]43[C@@H]65)C2)C1 [vincristine]
Reply: 483

----------
methodSummary: Vincristine plasma PK in presence
Assay type: in vivo, human
runParameters: human, plasma, intravenous, 50 mg, Geometric mean AUCτ (CV), alisertib 50 mg b.i.d. cohort, C2D1 (alisertib absent), n=2
endpointName: AUC (ng·h/mL)
Numbers only, in ng·h/mL.

Ask: Would you kindly share the measured AUC for CC[C@]1(O)C[C@H]2CN(CCc3c([nH]c4ccccc34)[C@@](C(=O)OC)(c3cc4c(cc3OC)N(C=O)[C@H]3[C@@](O)(C(=O)OC)[C@H](OC(C)=O)[C@]5(CC)C=CCN6CC[C@]43[C@@H]65)C2)C1 [vincristine] ?
Reply: 68.4

----------
methodSummary: Vincristine plasma PK in presence
Format: in vivo, human
runParameters: human, plasma, intravenous, 30 mg, Geometric mean AUC∞ (CV), alisertib 30 mg b.i.d. cohort, C1D1 (alisertib present), n=4
endpointName: AUC(0-inf) (ng·h/mL)
One number for each entry, in ng·h/mL.

Ask: Returns the measured AUC(0-inf) for the input compound. Input: CC[C@]1(O)C[C@H]2CN(CCc3c([nH]c4ccccc34)[C@@](C(=O)OC)(c3cc4c(cc3OC)N(C=O)[C@H]3[C@@](O)(C(=O)OC)[C@H](OC(C)=O)[C@]5(CC)C=CCN6CC[C@]43[C@@H]65)C2)C1
Reply: 77

----------
methodSummary: Vincristine plasma PK in presence
Assay type: in vivo, human
runParameters: human, plasma, intravenous, 30 mg, Mean t1/2z (st. dev), alisertib 30 mg b.i.d. cohort, C2D1 (alisertib absent), n=3
endpointName: half-life (h)
Give bare numbers, in h.

Ask: Which half-life is reported for this compound? CC[C@]1(O)C[C@H]2CN(CCc3c([nH]c4ccccc34)[C@@](C(=O)OC)(c3cc4c(cc3OC)N(C=O)[C@H]3[C@@](O)(C(=O)OC)[C@H](OC(C)=O)[C@]5(CC)C=CCN6CC[C@]43[C@@H]65)C2)C1
Reply: 19.9

----------
methodSummary: Alisertib plasma PK in patients
Type: in vivo, human
runParameters: human, plasma, oral, 40 mg, Geometric mean AUCτ (CV), MRV, alisertib 40 mg b.i.d., C1D1, n=22
endpointName: AUC

Ask: Could you share which AUC value was measured for COc1cc(Nc2ncc3c(n2)-c2ccc(Cl)cc2C(c2c(F)cccc2OC)=NC3)ccc1C(=O)O ?
Reply: 7.44 µM·h

----------
methodSummary: Vincristine plasma PK in presence
Format: in vivo, human
runParameters: human, plasma, intravenous, 40 mg, Mean t1/2z (st. dev), alisertib 40 mg b.i.d. cohort, C1D1 (alisertib present), n=22
endpointName: half-life (min)
Give bare numbers, in min.

Ask: Which half-life is listed for CC[C@]1(O)C[C@H]2CN(CCc3c([nH]c4ccccc34)[C@@](C(=O)OC)(c3cc4c(cc3OC)N(C=O)[C@H]3[C@@](O)(C(=O)OC)[C@H](OC(C)=O)[C@]5(CC)C=CCN6CC[C@]43[C@@H]65)C2)C1 ?
Reply: 1200

----------
methodSummary: Alisertib plasma PK in patients
Format: in vivo, human
runParameters: human, plasma, oral, 30 mg, Geometric mean Cmax (CV), MRV, alisertib 30 mg b.i.d., C1D7, n=4
endpointName: Cmax (nM)
Numbers only, in nM.

Ask: I have this compound here, COc1cc(Nc2ncc3c(n2)-c2ccc(Cl)cc2C(c2c(F)cccc2OC)=NC3)ccc1C(=O)O [alisertib] , and I need its recorded Cmax.
Reply: 1660
